Recorded IC50 by entry
tgt: human CRTH2 (Homo sapiens, UniProt Q9Y5Y4, V204A)
Sequence (Q9Y5Y4 whole entry V204A): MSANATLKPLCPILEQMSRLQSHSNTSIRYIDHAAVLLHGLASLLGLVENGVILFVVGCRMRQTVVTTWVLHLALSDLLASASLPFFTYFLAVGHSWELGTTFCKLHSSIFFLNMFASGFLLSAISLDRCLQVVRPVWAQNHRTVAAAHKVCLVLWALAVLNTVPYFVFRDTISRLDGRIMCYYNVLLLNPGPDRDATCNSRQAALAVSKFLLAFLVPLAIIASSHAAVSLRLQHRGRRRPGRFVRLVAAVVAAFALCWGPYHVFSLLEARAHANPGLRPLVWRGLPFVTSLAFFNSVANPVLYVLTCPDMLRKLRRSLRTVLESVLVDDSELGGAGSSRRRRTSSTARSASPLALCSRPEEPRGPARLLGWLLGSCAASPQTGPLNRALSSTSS
method notes: Functional antagonist BRET assay on HEK293 cells stably expressing human CRTH2-Rluc and GFP2-β-arr2
Assay type: cell-based
Design: expressed in transfected cells
experimental context: BRET, antagonist incubated 15 minutes prior to agonist; read-out: Antag. IC50
reported endpoint: IC50

INSERT INTO assay_data (molecule, reported_endpoint, experimental_value) VALUES
  ('COc1ccc(-n2cc(C(=O)c3cc(Br)ccc3OCC(=O)O)cn2)cc1', 'IC50', '< 500 nM'),
  ('O=C(O)COc1ccc(Br)cc1CC1SC(=O)N(Cc2cccc(Cl)c2)C1=O (centres unmarked)', 'IC50', '< 500 nM'),
  ('O=C(O)COc1ccccc1C=NNC(=O)COc1ccc(Cl)cc1Cl', 'IC50', '< 500 nM'),
  ('Cc1cccc(C)c1-n1cc(C(=O)c2cc(Br)ccc2OC(C)C(=O)O)cn1 (centres unmarked)', 'IC50', '< 500 nM'),
  ('O=C(O)COc1ccc(Br)cc1C(=O)c1cnn(-c2ccc(Cl)cc2Cl)c1', 'IC50', '< 500 nM'),
  ('O=C(O)COc1ccc(Br)cc1C=NNc1cccc2cccnc12', 'IC50', '> 5000 nM'),
  ('Nc1ccc(OCC(=O)O)c(C(=O)c2cnn(-c3ccccc3)c2)c1', 'IC50', '< 500 nM'),
  ('O=C(O)COc1ccc(Br)cc1C(=O)c1cnn(-c2ccccc2Cl)c1', 'IC50', '< 500 nM'),
  ('CC(Oc1ccc(Br)cc1C(=O)c1cnn(-c2ccccc2Cl)c1)C(=O)O (centres unmarked)', 'IC50', '< 500 nM'),
  ('O=C(O)COc1ccc(Br)cc1CC1SC(=O)N(CC(=O)c2ccc(Cl)cc2)C1=O (centres unmarked)', 'IC50', '< 500 nM'),
  ('O=C(O)COc1ccc(Br)cc1C(=O)c1cnn(-c2ccccc2Br)c1', 'IC50', '< 500 nM'),
  ('CC(Oc1ccc(Br)cc1C(=O)c1cnn(Cc2ccccc2)c1)C(=O)O (centres unmarked)', 'IC50', '< 500 nM'),
  ('COc1ccc(-c2nc(-c3cc(Br)ccc3OCC(=O)O)co2)cc1', 'IC50', '500 to 5000 nM'),
  ('CC(Oc1ccc(Br)cc1C(=O)c1cnn(-c2ccccc2Oc2ccccc2)c1)C(=O)O (centres unmarked)', 'IC50', '< 500 nM'),
  ('COc1cccc(Cc2nc(-c3cc(Br)ccc3OCC(=O)O)co2)c1', 'IC50', '< 500 nM'),
  ('CCOc1ccccc1-n1cc(C(=O)c2cc(Br)ccc2OC(C)C(=O)O)cn1 (centres unmarked)', 'IC50', '< 500 nM'),
  ('O=C(O)COc1ccccc1C=NNC(=O)c1ccnc(-c2ccccc2)c1', 'IC50', '500 to 5000 nM'),
  ('Cc1ccc(-n2cc(C(=O)c3cc(Br)ccc3OCC(=O)O)cn2)c(C)c1', 'IC50', '< 500 nM'),
  ('O=C(O)COc1ccc(Br)cc1-c1nc(C2(c3ccccc3)CC2)no1', 'IC50', '< 500 nM'),
  ('CCOc1ccc(-c2nc(-c3cc(Br)ccc3OCC(=O)O)co2)cc1', 'IC50', '> 5000 nM');
